The measurements presented in this section are drawn from patent US9790551B2.

System: Aβ levels in primary cultured rat cortical neurons
procedure.text: Aβ ELISA of medium, primary cultured rat cortical neurons electrotransfected with siRNA
Format: cell-based
details: Table 6, 7 days after electrotransfection, control siRNA = 1
Aβ40 for assorted substances

substance: Control siRNA: control siRNAs, SEQ ID NO.:14 (sense strand) and SEQ ID NO.:15 (anti-sense strand) (sense GCACACCGAAGGAUAUUCUTT; antisense AGAAUAUCCUUCGGUGUGCTT; chemistry not given here)
endpoint.result: 1
//
substance: TRPC6 siRNA-2: TRPC6 siRNA, SEQ ID NO.:18 GCUUGACUUUGGAAUGUUATT and SEQ ID NO.:19 UAACAUUCCAAAGUCAAGCTT (chemistry not given here)
endpoint.result: 1.33 ± 0.13
//
substance: TRPC5 siRNA: TRPC5 siRNA, SEQ ID NO.:20 AACGCCUUCUCCACGCUCUUU and SEQ ID NO.:21 AAAGAGCGUGGAGAAGGCGUU (listed as RNA, chemistry not given here)
endpoint.result: 0.96 ± 0.09

The record that follows has no Aβ40 shown yet.
Per the record, TRPC6 siRNA-1: TRPC6 siRNA, SEQ ID NO.:12 (sense strand) and SEQ ID NO.:13 (anti-sense strand) (sense CGGUGGUCAUCAACUACAATT; antisense UUGUAGUUGAUGACCACCGTT; chemistry not given here) has Aβ40 of 1.49 ± 0.16

====

Tested on: Aβ levels in primary cultured rat cortical neurons
procedure.text: Aβ ELISA of medium, primary cultured rat cortical neurons electrotransfected with siRNA
Type: cell-based
details: Table 6, 7 days after electrotransfection, control siRNA = 1
Aβ42 for assorted substances
Could you respond with only the numeric value?

Before answering, review these 3 worked examples.
substance: TRPC6 siRNA-1: TRPC6 siRNA, SEQ ID NO.:12 (sense strand) and SEQ ID NO.:13 (anti-sense strand) (sense CGGUGGUCAUCAACUACAATT; antisense UUGUAGUUGAUGACCACCGTT; chemistry not given here)
Aβ42: 1.89
//
substance: Control siRNA: control siRNAs, SEQ ID NO.:14 (sense strand) and SEQ ID NO.:15 (anti-sense strand) (sense GCACACCGAAGGAUAUUCUTT; antisense AGAAUAUCCUUCGGUGUGCTT; chemistry not given here)
Aβ42: 1
//
substance: TRPC6 siRNA-2: TRPC6 siRNA, SEQ ID NO.:18 GCUUGACUUUGGAAUGUUATT and SEQ ID NO.:19 UAACAUUCCAAAGUCAAGCTT (chemistry not given here)
Aβ42: 1.63

The record that follows has no Aβ42 shown yet.
Per the record, TRPC5 siRNA: TRPC5 siRNA, SEQ ID NO.:20 AACGCCUUCUCCACGCUCUUU and SEQ ID NO.:21 AAAGAGCGUGGAGAAGGCGUU (listed as RNA, chemistry not given here) has Aβ42 of 1.03
